Cited source for all entries: PubChem BioAssay (NCI)

- System: RPMI-8226 leukemia
- assay_name: NCI tumour cell line growth inhibition, 48 h
Returns Yes if the recorded TGI is greater than or equal to 9 µM, and No otherwise.

Below, 3 molecules whose answers are already recorded.
> print(dat)
                                   molecule  label.value
1  CCOC(=O)C1C[C@H]2CO[C@H](c3ccccc3)N2C1=O (stereo not given in full)          Yes
2        N#CCOc1cccc(C2(N3CC=CCC3)CCCCC2)c1          Yes
3  COc1cc2c(cc1OC)-c1ccc3cc4c(cc3c1N(CCN(C)C)C2)OCO4           No

Could you please find out whether O=C(Cn1c(=O)oc2ccc(C(=O)c3ccccc3Cl)cc21)c1ccc([N+](=O)[O-])cc1 has TGI that meets 9 µM or exceeds it?
Yes

Could you please find out whether CC1=C(C(=O)Nc2ccc([N+](=O)[O-])cc2)C(c2ccccc2O)C(C(=O)Nc2ccc([N+](=O)[O-])cc2)=C(C)N1 has TGI that meets 9 µM or exceeds it?
Yes

Could you please find out whether O=c1cc(-c2ccccc2)[nH]c2c(Cl)cccc12 has TGI that meets 9 µM or exceeds it?
Yes

Could you please find out whether N#CCSc1c(-c2ccccc2)c(=O)n(-c2ccccc2)c(=S)n1-c1ccccc1 has TGI that meets 9 µM or exceeds it?
Yes

Could you please find out whether C=CC[N+](CCO)(CCO)CCCCCCCCCCCCCCCCCC has TGI that meets 9 µM or exceeds it?
No

Could you please find out whether COC(=O)c1c(O)ccc2c1c1c(n2Cc2ccccc2OC)C(=O)c2ccccc2C1 has TGI that meets 9 µM or exceeds it?
Yes

Could you please find out whether COc1cc(-c2csc(NC(=O)Nc3cc(C(F)(F)F)cc(C(F)(F)F)c3)n2)cc(OC)c1OC has TGI that meets 9 µM or exceeds it?
No

Could you please find out whether Clc1ccc(C(c2ccc(Cl)cc2)N2CCNCC2)cc1 has TGI that meets 9 µM or exceeds it?
No

Could you please find out whether COc1ccc(-c2cn(-c3cccc(C(=O)/C=C/c4ccc(O)c(OC)c4)c3)c(=O)[nH]2)cc1 has TGI that meets 9 µM or exceeds it?
No

Could you please find out whether COc1ccc(CCNC(=O)CCCCCO)cc1OC has TGI that meets 9 µM or exceeds it?
Yes

* * *

- System: SN12C renal
- assay_name: NCI tumour cell line growth inhibition, 48 h
Record form. Attribute: TGI. Fill in for each entry.

> print(dat)
                                compound  reported.result
1  NC(=O)C(=Cc1ccc(CP(=O)(O)O)cc1)C(N)=O         > 100 µM

Could you report TGI for every entry in the following list?
1. COc1c2c(c(CC=C(C)C)c3oc(=O)c(-c4ccc(O)cc4)c(O)c13)OC(C)(C)C=C2
2. CN(C)CCNC(=O)c1cccc2[nH]c(-c3ccncc3)nc12
3. CSc1n(Cc2ccc3ccccc3c2)c(C)c[n+]1Cc1ccc2ccccc2c1

["> 100 µM", "> 76.3 µM", "1.87 µM"]

Could you report TGI for every entry in the following list?
1. N#CCOc1cccc(C2(N3CC=CCC3)CCCCC2)c1
2. Cc1oncc1NC1=CC(=O)C(=O)c2ccccc21
3. Cc1ccc(C(=O)N2c3ccccc3N(C)n3cccc3C2CC(=O)O)cc1 (stereo not given)

1. > 100 µM
2. 17.1 µM
3. > 100 µM

* * *

- System: M14 melanoma
- assay_name: NCI tumour cell line growth inhibition, 48 h; in the data active = GI50 below about 0.43 µM; inactive = the rest
Hi there, use one of these labels in your reply, thanks! active, inactive

> print(dat)
                                   compound  label.value
1  O=C(Nc1ccc2[nH]c(C(=O)N3CC(CCl)c4c3cc([N+](=O)[O-])c3ccccc43)cc2c1)c1cc2ccccc2o1 (centres undefined)     inactive
2  CC(=O)OC(C)(C)/C=C/C(=O)[C@](C)(O)[C@H]1[C@H](O)C[C@@]2(C)[C@@H]3CC=C4[C@@H](C[C@H](O)C(=O)C4(C)C)[C@]3(CO)C(=O)C[C@]12C       active
3  CCCOC(=O)N[C@H]1CCc2cc(OC)c(OC)c(OC)c2-c2ccc(SC)c(=O)cc21       active

For this compound, state the assay outcome: O=C(O)CC(NC(=O)CP(=O)(O)O)C(=O)O.[NH-]C1CCCCC1[NH-].[Pt+2] (centres undefined)
inactive

* * *

- System: MCF7 breast
- assay_name: NCI tumour cell line growth inhibition, 48 h; in the data active means GI50 below about 0.43 µM; inactive means the rest
Hi there, use one of these labels in your reply, thanks! 1 = active, -1 = inactive

Below, 4 molecules whose answers are already recorded.
> print(dat)
                                   molecule  label.value
1  Cn1cc(-c2nc(-c3c[nH]c4ccncc34)cs2)c2cc(F)ccc21           -1
2  O=C(O)CC(NC(=O)CP(=O)(O)O)C(=O)O.[NH-]C1CCCCC1[NH-].[Pt+2] (centres undefined)           -1
3  COc1ccc2c(c1)c1nc3cc(C)c(C)cc3nc1n2CCN(C)C            1
4  COc1cc2c(cc1OC)-c1ccc3cc4c(cc3c1N(CCN(C)C)C2)OCO4            1

For this molecule, state the assay outcome: O=C1NC(=O)C(c2ccc(Cl)cc2)=C1Nc1ccc(Cl)c(C(=O)O)c1
-1

For this molecule, state the assay outcome: O=C(Nc1ccc2[nH]c(C(=O)N3CC(CCl)c4c3cc([N+](=O)[O-])c3ccccc43)cc2c1)c1cc2ccccc2o1 (centres undefined)
-1

* * *

Record form. Attribute: TGI. Fill in for each entry.
- Tested on: SNB-78 CNS
- assay_name: NCI tumour cell line growth inhibition, 48 h

For orientation, consider the following solved cases.
molecule	TGI
C/C(=N\NC(=O)c1cccnc1)c1cccc(/C(C)=N/NC(=O)c2cccnc2)n1.CC(=O)[O-].CC(=O)[O-].[Zn+2]	> 100 µM
N#Cc1ccc(Nc2cnc3ccc(N)cc3n2)cc1	> 100 µM
CCO/C=C1\N=C(C(Cl)c2ccccc2)OC1=O (stereo unspecified)	> 100 µM

Could you report TGI for every entry in the following list?
1. C=C1C(=O)O[C@@H]2OC3(C)CCC4C(C)CCC1C42OO3 (stereo partly specified)
2. Nc1nc(NC2C=C(CO)C(O)C2O)c([N+](=O)[O-])c(=O)[nH]1 (stereo unspecified)
3. CCCCCCCC(=O)OCC1OC(n2cc(F)c(=O)[nH]c2=O)C(NC(=O)OCc2ccccc2)C(O)C1O (stereo unspecified)

1. 19.8 µM
2. > 100 µM
3. > 100 µM

Could you report TGI for every entry in the following list?
1. CCC(=O)C(C)C(=O)C(=O)C(=O)OC (stereo unspecified)
2. COC(=O)[C@@]12OC[C@]34C([C@@H](O)C1O)[C@@]1(C)CC(=O)C(O)=C(C)C1C[C@H]3OC(=O)[C@H](OC(=O)/C=C(/c1ccccc1)C(F)(F)F)[C@H]42 (stereo partly specified)

> 100 µM
> 25 µM

* * *

- Test system: SF-539 CNS
- assay_name: NCI tumour cell line growth inhibition, 48 h
Record form. Attribute: TGI. Fill in for each entry.

> print(dat)
                                   molecule  outcome.measure  reported.result
1  COc1ccc(-c2nnc(CCCCCCCCc3nnc(-c4ccc(OC)cc4)n3N)n2N)cc1              TGI         > 100 µM
2  C/C(=N\NC(=O)c1cccnc1)c1cccc(/C(C)=N/NC(=O)c2cccnc2)n1.CC(=O)[O-].CC(=O)[O-].[Zn+2]              TGI          6.55 µM
3  CCOC(=O)C1C[C@H]2CO[C@H](c3ccccc3)N2C1=O (some centres undefined)              TGI         > 100 µM

Could you report TGI for every entry in the following list?
1. Cc1nc2c(Cl)cc(Cl)cc2c(Cl)c1CCCl
2. NC(=O)C[C@H](NC(=O)C1(NC(=O)[C@H](Cc2ccc(CP(=O)(O)O)cc2)NC(=O)C(=O)O)CCCCC1)C(=O)NCCCc1cccc2ccccc12
3. COc1ccc(/C=N/n2cnc3c(c2=O)S/C(=C2/SC(=S)N(c4ccc(C)cc4)C2=O)N3c2ccccc2)cc1
4. COc1cc(C=O)c(-c2cc3c(cc2C2(C)OCCS2)OCO3)c(OC)c1OC (centres undefined)
5. COc1cc(/C=C2\N=C(C)N(n3c(-c4ccccc4)nc4ccccc4c3=O)C2=O)cc(OC)c1OC
6. O=C(NN1C(=O)CSC1c1ccco1)c1ccncc1 (centres undefined)

["> 100 µM", "> 10 µM", "> 100 µM", "17.4 µM", "> 100 µM", "> 100 µM"]
